Test system: U251 CNS
Experiment: NCI-60 one-dose screen, 48 h (100 = growth as untreated, 0 = no growth, -100 = all killed)
Conditions: 10 µM
Experimental: Growth inhibition of the U251 human tumor cell line is measured as a screen for anti-cancer activity. Cells are grown in 96 well plates and exposed to the test compound for 48 hours. Compounds are tested at a single concentration, which is 10^-5 M for most compounds. The reported endpoint is percent growth (GI% or GIPRCNT), where numbers from 0 - 100% represent growth inhibition, and numbers from -100% - 0 represent cell death. For example, a value of 40 represents 60% growth inhibition. […]
The panel holds about 83,000 compounds, 20% with a hit somewhere; the sample as a whole holds those more often. The source made the active and inactive calls. Rule for the calls: active = growth percent below 10; inactive = the rest.
Hi there, I'd appreciate the recorded growth for every entry that follows.

Bench note: what growth did `CCCCSc1nc(Nc2ccc(/C(C)=N/NC(N)=S)cc2)c(C#N)c(-c2ccccc2)n1` show?
18.8% (inactive)

Entry `Cc1ccc(C(=O)Nc2ccc(-n3c(C)nc4c(cnn4-c4ccccc4)c3=O)cc2)cc1` : reported growth = ?
90% (inactive)

// growth lookup, key: `O=C(NO)c1ccc(-c2nc3ccc4[nH]ncc4c3c3c2CCCC3)cc1`
-39.1% (active)

Data request, read-out growth, for `Cc1ccc2nc(COc3ccc(C(=O)NNC(=S)NCCc4ccccc4)cc3)[nH]c2c1`
24% (inactive)

Consider the compound `Cc1cc(=O)oc2cc(OCCCCOc3ccc(/C=C/C(=O)Nc4cccc(Cl)c4)cc3)ccc12` and give its measured growth.
56.8% (inactive)

So what's the measured growth for this one? `CCCn1c(=O)c2[nH]c(-c3ccc(OCc4nc5ccc(C(F)(F)F)cc5[nH]4)cc3)nc2n(CCC)c1=O`
37.6% (inactive)

Would you kindly share the measured growth for `O/N=C(\CSc1nnc(-c2c[nH]c3ccccc23)n1-c1ccccc1)c1ccc(Br)cc1` ?
9.73% (active)

Which growth value belongs to `CCCCCCCCCCCCCCCCCCCC(=O)NCCc1c[nH]c2ccc(OC(=O)CCCC(=O)OCCOOCCOOCCOOCCOOCCOOCCOOCCOOCCOOCCOOCCOOCCOOCCOC)cc12` ?
-31.3% (active)

I'd like to know its growth. The compound in question is `CCCn1c(=O)c2[nH]c(-c3ccc(OCc4nc5ccc(C)cc5[nH]4)cc3)nc2n(CCC)c1=O`
6.38% (active)

GET /values?readout=growth&item= `O=C(Nc1ccc(OCc2ccccc2)cc1)Nc1ccc(Cl)c(C(F)(F)F)c1`
-10.2% (active)

So what does the record say about growth for `O=C(NO)c1ccc(CNC(=O)[C@H]2Cc3c([nH]c4ccccc34)[C@H](c3ccc(Cl)cc3)N2)cc1` ?
-4.01% (active)

Any idea what growth was measured for `O=c1[nH]c2ccccc2cc1CSc1ccc(Nc2nccc(-c3ccc4ccccc4c3)n2)cc1` ?
20% (inactive)

Which growth is listed for `O=C(NO)c1ccc(CNc2nc(-c3ccccc3)c3ccccc3n2)cc1` ?
-37.7% (active)

Would you mind telling me what growth value was observed for `NS(=O)(=O)c1ccc(NC(=O)CSc2ccc(-c3ccccc3)nn2)c(Br)c1` ?
17.8% (inactive)

Any idea what growth was measured for `Cc1ccc(S(=O)(=O)c2nc(-c3ccccc3)oc2S(=O)(=O)CC(=O)N2CCCC2)cc1` ?
-77.5% (active)

Quick one: growth for `CO[C@H]1CSS[C@@H]1Cn1nc(-c2ccc(Oc3ccccc3)cc2)c2c(N)ncnc21` ?
24.6% (inactive)

Given the entry `Cc1nc(Nc2nc(C)c3ccc(OCCN4CCOCC4)cc3n2)[nH]c(=O)c1C` , report its measured growth.
8.71% (active)

# get_value(readout='growth', item= `Cc1ccc(/C=C/C(=O)c2ccc(NC(=O)CSc3nnc(-c4c[nH]c5ccccc45)n3-c3ccccc3)cc2)c(C)c1` )
13.1% (inactive)

Returns the measured growth for the input compound. Input: `COc1nccnc1NS(=O)(=O)c1ccc(NC2=C(Cl)C(=O)c3nc(C)ccc3C2=O)cc1`
96.9% (inactive)
